assay: recombinant UMI read abundance after kanamycin selection (control-corrected) (log10(CPM+1)); higher = more efficient recombination; extreme values may be limits of the assay; sequences stand for … in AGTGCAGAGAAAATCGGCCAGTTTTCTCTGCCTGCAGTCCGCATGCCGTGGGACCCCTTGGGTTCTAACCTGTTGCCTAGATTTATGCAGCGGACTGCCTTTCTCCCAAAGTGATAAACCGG…AGGTTGGTTTCACT; site = the 11-nt donor;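 note: IS621 bridge recombinase in Escherichia coli cells against a fixed T5 target plasmid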
Note to self: values exactly at 0.01 are yes. So recombinant UMI read abundance (log10) at or above 0.01 is yes, below is no.

Consider the worked cases shown below.
1. GGTATTTCATGGACCGGTTTTCCCGGTAATCCGTATTTGAA (site GGTATTTCTTT) | no
2. TGCCTAGCATGGACCGGTTTTCCCGGTAATCCGTATTTGTT (site AGCCTAGCTAA) | yes
3. AGCCTGGCATGGACCGGTTTTCCCGGTAATCCGTATTTGAC (site AGCCTGGCTGT) | no
4. AGGTTCCCATGGACCGGTTTTCCCGGTAATCCGTATTTGTG (site GGGTTCCCTCA) | no
5. GTCATCGCATGGACCGGTTTTCCCGGTAATCCGTATTTGCC (site GTCATCGCTGG) | yes
6. TATTCGCCATGGACCGGTTTTCCCGGTAATCCGTATTTGGG (site TATTCGCCTCC) | yes
7. CTTGTGTCATGGACCGGTTTTCCCGGTAATCCGTATTTGGG (site CTTGTGTCTCC) | yes
8. CCATATGCATGGACCGGTTTTCCCGGTAATCCGTATTTGCA (site CCATATGCTTG) | yes

Shift focus to the following entry.
Test whether the sequence CTAGTTTCATGGACCGGTTTTCCCGGTAATCCGTATTTGCC (site CTAGTTTCTGG) records recombinant UMI read abundance (log10) of 0.01 or higher.
yes

====

experiment: recombinant UMI read abundance after kanamycin selection (control-corrected) (log10(CPM+1)); higher = more efficient recombination; extreme values may be limits of the assay; sequences stand for … in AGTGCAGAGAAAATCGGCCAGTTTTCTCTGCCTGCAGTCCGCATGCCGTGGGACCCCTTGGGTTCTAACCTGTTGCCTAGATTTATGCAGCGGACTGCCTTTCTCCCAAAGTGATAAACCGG…AGGTTGGTTTCACT; site = the 11-nt donor
Note to self: values exactly at 0.2 are met. So recombinant UMI read abundance (log10) at or above 0.2 is met, below is not met.

Consider the worked cases shown below.
1. ATAGTCTCATGGACCGGTTTTCCCGGTAATCCGTATTTGAG (site ATAGTCTCTCT) | met
2. GGATGCTCATGGACCGGTTTTCCCGGTAATCCGTATTTGCT (site GGATGCTCTAG) | met
3. TGTTCCGCATGGACCGGTTTTCCCGGTAATCCGTATTTGTA (site TGTTCCTCTTA) | not met
4. CCCATATCATGGACCGGTTTTCCCGGTAATCCGTATTTGAT (site CCCATATCTAT) | not met

Test whether the sequence GATTATCCATGGACCGGTTTTCCCGGTAATCCGTATTTGCT (site GATTATCCTAA) records recombinant UMI read abundance (log10) of 0.2 or higher.
not met

Test whether the sequence CTCTACACATGGACCGGTTTTCCCGGTAATCCGTATTTGCC (site CTCTACACTTG) records recombinant UMI read abundance (log10) of 0.2 or higher.
met

Test whether the sequence AAATGAGCATGGACCGGTTTTCCCGGTAATCCGTATTTGGG (site CAATGAGCTCC) records recombinant UMI read abundance (log10) of 0.2 or higher.
met
